molecular target: PDGF AB (Homo sapiens, UniProt P04085;P01127 P04085:87-211,P01127:82-190); assay: filter; biphasic, higher affinity component; conditions: tags: R&D Systems 222-AB; chain copies: A/B chain heterodimer (inferred)
Sequence (P01127 82-190, chain 2 of 2, other chains not shown): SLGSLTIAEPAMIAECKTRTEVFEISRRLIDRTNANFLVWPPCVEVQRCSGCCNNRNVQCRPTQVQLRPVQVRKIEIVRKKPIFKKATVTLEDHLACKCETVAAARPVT
propertyMeasured: Kd (nM)
Dear colleague, please return just the value in nM, with no unit written.

{"columns": ["binder", "unitDescriptor", "Kd"],
 "data": [
  ["TACTCAGGGCACTGCAAGCAATTGTGGTCCCAATGGGCTGAGTAT (ssDNA, 3'-3' inverted T at 3' end) [41t]", "nM", 0.051],
  ["CCACAGGCTACGGCACGTAGAGCATCACCATGATCCTGTGT (ssDNA, 3'-3' inverted T at 3' end) [36t]", "nM", 0.082]
]}

What Kd value was documented for this binder, TGGGAGGGCGCGTTCTTCGTGGTTACTTTTAGTCCCGT (ssDNA, 3'-3' inverted T at 3' end (described for truncated ligands)) [20t-a] ?
0.082
